Here's what we have: pIC50 numbers for HIF-PH2 (EGLN1) (Homo sapiens).
pIC50: −log10 of the molar value.

Reference set (5 entries):
{"COMPOUND STRUCTURE": "O=C(O)CNC(=O)c1nc(Cl)c2c(sc3cc(O)ccc32)c1O", "EXPERIMENTAL TARGET": "HIF-PH2 (EGLN1) (Homo sapiens)", "EXPERIMENTAL ENDPOINT": "pIC50", "MEASUREMENT": "> 4.60"}
{"COMPOUND STRUCTURE": "Cc1nc(C(=O)NCC(=O)O)c(O)c2sc3cc(F)ccc3c12", "EXPERIMENTAL TARGET": "HIF-PH2 (EGLN1) (Homo sapiens)", "EXPERIMENTAL ENDPOINT": "pIC50", "MEASUREMENT": "> 4.60"}
{"COMPOUND STRUCTURE": "O=C(O)CNC(=O)c1ncc2c(-c3ccccc3)coc2c1O", "EXPERIMENTAL TARGET": "HIF-PH2 (EGLN1) (Homo sapiens)", "EXPERIMENTAL ENDPOINT": "pIC50", "MEASUREMENT": "3.70 to 4.00"}
{"COMPOUND STRUCTURE": "O=C(O)CNC(=O)c1nc(Cl)c2c(sc3ccc([N+](=O)[O-])cc32)c1O", "EXPERIMENTAL TARGET": "HIF-PH2 (EGLN1) (Homo sapiens)", "EXPERIMENTAL ENDPOINT": "pIC50", "MEASUREMENT": "> 4.60"}
{"COMPOUND STRUCTURE": "CC(=O)Nc1ccc2sc3c(O)c(C(=O)NCC(=O)O)nc(Cl)c3c2c1", "EXPERIMENTAL TARGET": "HIF-PH2 (EGLN1) (Homo sapiens)", "EXPERIMENTAL ENDPOINT": "pIC50", "MEASUREMENT": "> 4.60"}

Q: GET /values?readout=pIC50&item= C[C@H](NC(=O)c1nc(Br)c2c(sc3ccccc32)c1O)C(=O)O
A: 4.00 to 4.59

Q: GET /values?readout=pIC50&item= O=C(O)CNC(=O)c1nc(Br)c2c(sc3ccccc32)c1F
A: > 4.60

Q: GET /values?readout=pIC50&item= Nc1c(C(=O)NCC(=O)O)nc(Br)c2c1sc1ccccc12
A: < 3.70

Q: GET /values?readout=pIC50&item= O=C(NCc1ccccc1)c1nc(Br)c2c(sc3ccccc32)c1O
A: 4.00 to 4.59

Q: GET /values?readout=pIC50&item= C[C@H](NC(=O)c1ncc2ccoc2c1O)C(=O)O
A: < 3.70

Q: GET /values?readout=pIC50&item= O=C(O)CNC(=O)c1ncc2c(cnn2-c2ccccc2)c1O
A: > 4.60
